Tested on: HBC-4 breast cancer cells
Assay: antitumor activity, sulforhodamine B cell growth assay, HBC-4
Type: cell-based
Settings: HBC-4, drug exposure 48 hours; read-out: GI50 value: 50% growth inhibitory concentration
compounds and their reported GI50
All answers are understood in nM, so give the number only.

Worked set:
[[record]]
compound = "C=C1/C=C/CN[C@@H](C)C(=O)NCC2c3c(c(c(C)c4c3OCO4)OC1)C[C@H]1[C@H]3c4c(cc(C)c(OC)c4O)C[C@@H]([C@H](C#N)N21)N3C"
value = 32

[[record]]
compound = "COC1=C(C)C(=O)C2=C(C1=O)[C@H](CNC(=O)[C@H](C)N)N1C(C2)[C@H]2c3c(cc(C)c(OC)c3O)C[C@@H]([C@@H]1C#N)N2C (stereo partly shown) [Cyanosafracin B, reference compound]"
value = 59


Attention now turns to another entry.
(Q) Look at this compound and give its reported GI50. COc1c(C)cc2c(c1O)C1C3Cc4c5c(C)c6c(c4C(CNC(=O)C(C)NC(=O)OCC4C=C(CO5)CC5C(=O)N(c7ccccc7)C(=O)C45)N3C(C#N)C(C2)N1C)OCO6 (stereo not shown)
(A) 30
